target: VLA-4 (a4b1 integrin) (Homo sapiens, UniProt P05556+P13612); construct: followed by 10 µl of Ramos cell-derived VLA-4; endogenous in cells; host or cells: Ramos cells (VLA-4 derived from them; method of extraction or purification not described); assay: Ramos (VLA-4) / VCAM-1 Cell-Based Screening Assay (Ramos-VCAM-1 cell adhesion assay); settings: Calcein-AM labeled Ramos cells adhering to immobilized recombinant human VCAM-1; 45 min at room temperature
Sequence (P13612 34-1032): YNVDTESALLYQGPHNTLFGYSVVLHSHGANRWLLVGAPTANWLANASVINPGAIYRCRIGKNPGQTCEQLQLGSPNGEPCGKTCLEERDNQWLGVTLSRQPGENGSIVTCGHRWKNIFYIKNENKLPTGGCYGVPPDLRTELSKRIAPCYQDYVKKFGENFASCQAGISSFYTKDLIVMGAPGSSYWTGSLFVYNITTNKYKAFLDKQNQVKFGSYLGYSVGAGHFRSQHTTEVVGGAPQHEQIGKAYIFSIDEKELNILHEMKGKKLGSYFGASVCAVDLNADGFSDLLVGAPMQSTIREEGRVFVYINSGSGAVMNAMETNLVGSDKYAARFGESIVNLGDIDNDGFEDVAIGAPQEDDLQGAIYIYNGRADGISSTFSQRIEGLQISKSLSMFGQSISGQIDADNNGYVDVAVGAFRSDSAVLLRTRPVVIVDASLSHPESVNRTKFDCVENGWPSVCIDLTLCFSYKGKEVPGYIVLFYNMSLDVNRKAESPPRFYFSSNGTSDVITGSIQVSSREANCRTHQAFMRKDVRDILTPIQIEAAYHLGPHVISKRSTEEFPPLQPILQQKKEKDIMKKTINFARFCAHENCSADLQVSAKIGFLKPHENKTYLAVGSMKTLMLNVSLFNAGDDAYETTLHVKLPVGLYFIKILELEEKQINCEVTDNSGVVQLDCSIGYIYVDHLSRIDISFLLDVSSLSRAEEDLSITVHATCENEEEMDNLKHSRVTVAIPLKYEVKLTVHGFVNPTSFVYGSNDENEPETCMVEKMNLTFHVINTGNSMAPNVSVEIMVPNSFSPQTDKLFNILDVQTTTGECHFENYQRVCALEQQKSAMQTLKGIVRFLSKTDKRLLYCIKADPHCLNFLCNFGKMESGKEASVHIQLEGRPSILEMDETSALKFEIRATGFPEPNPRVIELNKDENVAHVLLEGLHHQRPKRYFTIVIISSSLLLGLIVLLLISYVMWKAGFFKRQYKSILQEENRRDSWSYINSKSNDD
Sequence (P05556 21-798): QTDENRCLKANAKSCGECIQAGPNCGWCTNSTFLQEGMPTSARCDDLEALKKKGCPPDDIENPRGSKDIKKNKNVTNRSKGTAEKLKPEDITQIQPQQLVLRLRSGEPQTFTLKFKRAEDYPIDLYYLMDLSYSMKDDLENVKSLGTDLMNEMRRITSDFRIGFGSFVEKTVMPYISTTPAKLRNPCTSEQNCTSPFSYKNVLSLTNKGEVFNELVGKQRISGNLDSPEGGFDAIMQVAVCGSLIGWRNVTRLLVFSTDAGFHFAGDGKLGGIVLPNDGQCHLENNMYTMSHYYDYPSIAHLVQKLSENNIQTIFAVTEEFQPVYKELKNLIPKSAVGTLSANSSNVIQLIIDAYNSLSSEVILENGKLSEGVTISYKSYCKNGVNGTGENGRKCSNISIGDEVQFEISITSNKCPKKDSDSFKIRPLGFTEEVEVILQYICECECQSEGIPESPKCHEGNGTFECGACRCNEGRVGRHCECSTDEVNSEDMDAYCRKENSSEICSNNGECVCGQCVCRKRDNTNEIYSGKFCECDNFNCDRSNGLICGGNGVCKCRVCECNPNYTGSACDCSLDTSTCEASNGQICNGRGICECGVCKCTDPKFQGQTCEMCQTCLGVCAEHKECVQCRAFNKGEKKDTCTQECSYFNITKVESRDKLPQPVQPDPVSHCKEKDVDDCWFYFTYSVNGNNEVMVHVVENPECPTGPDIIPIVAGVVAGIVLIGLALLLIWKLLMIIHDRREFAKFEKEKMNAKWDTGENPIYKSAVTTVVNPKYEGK
pIC50: −log10 of the molar value.
In this section we review reported pIC50 values for a set of compounds.

| Compound | pIC50 |
| --- | --- |
| Cc1cc(CC(NC(=O)c2c(C)cccc2Cl)C(=O)O)ccc1NC(=O)CCc1cccc(O)c1 (stereo not shown) | 6.36 |
| Cc1cc(CC(NC(=O)c2c(C)cccc2Cl)C(=O)O)ccc1NC(=O)c1c(Cl)cccc1Cl (stereo not shown) | 6.50 |
| Cc1cc(CC(NC(=O)c2c(C)cccc2Cl)C(=O)O)ccc1NC(=O)Cc1cccc(O)c1 (stereo not shown) | 6.29 |
| COc1ccc(Br)c(C(=O)NC(Cc2ccc(NC(=O)c3c(C)ccnc3C)cc2)C(=O)O)c1 (stereo not shown) | 7.66 |

Origin of values: patent EP1403247A1
